Several publications report pIC50 on Cytochrome P450 3A4 (Homo sapiens, UniProt P08684); those values are gathered here.
For clarity, pIC50 is expressed as the negative log10 of concentration in mol/L.

C[C@H](c1ccc(F)cc1)n1cncc1C1CN(C)CC2CN(S(=O)(=O)c3cnc(Nc4ccccn4)s3)CCN21 (stereo partly drawn) = 8.68
NC(=O)c1cc(COC2=NN=C(Nc3ccc(Cl)cc3)C3C=COC23)ccn1 (stereo not drawn) = 5.68

For the next question, use this compound.
Hey, Cytochrome P450 3A4 (Homo sapiens, UniProt P08684) data for C[C@@H](c1ccccc1CN1CCC(F)CC1)n1cncc1C(=O)N1CCC2NCCO[C@@H]2C1 (stereo partly drawn) : pIC50 came out at 8.11
